# System: RSK2(Kin.Dom.1-N-terminal)
# Construct: gene RPS6KA3
# settings: concentration: 1 μM, replicates: in singlicate; n = 1
property: %Inh (%)
Only the number, expressed in %, is required.

Name the recorded %Inh for Cl.c1ccc(Cn2ncc3cc(Nc4ncnc5ccccc45)ccc32)cc1 [GW273749] . 0

Subsequent entry: O=C(NCCCN1CCCC1=O)c1cnc(NCc2cc(Cl)ccc2Cl)nc1NC1CCNCC1 0

Subsequent entry: Cc1cccc(-c2nc(Nc3ccc4[nH]nnc4c3)c3ccccc3n2)n1 [GW867587] 12

Subsequent entry: Cn1cc(-c2ccc3c(c2)CCN3C(=O)Cc2cccc(C(F)(F)F)c2)c2c(N)ncnc21 [GSK2606414] 18

Subsequent entry: O=C(c1ccc(-c2cc(-c3c[nH]nc3-c3ccccn3)ccn2)cc1)N1CCCC1 [GW792479] 14

Subsequent entry: Cl.c1ccc(Cn2ccc3cc(Nc4ncnc5ccccc45)ccc32)cc1 [GW275568] 0

Subsequent entry: COc1cc2ncnc(Nc3ccc(OCc4ccccc4Br)c(Cl)c3)c2cc1OC.Cl [GI261590] 0

Subsequent entry: O=C(CCO)NCCn1ccc2ncnc(Nc3ccc(Oc4cccc(C(F)(F)F)c4)c(Cl)c3)c21 0

Subsequent entry: Cl.Cn1ccc(-c2cccc(Nc3ccnc4cc(-c5nccs5)ccc34)c2)n1 [GW525701] 8

Subsequent entry: Cc1cc(N2CCC(NS(=O)(=O)c3ccc(F)cc3)CC2)nc(Nc2cccc(C#N)c2)n1.O=C(O)C(F)(F)F [GSK1653537] 3

Subsequent entry: Nc1n[nH]c2nnc(-c3ccccc3)cc12 [SB-517389] 0

Subsequent entry: Cc1ccc(C)c(NC(=O)NCCNc2ccnc(Nc3ccc(F)cc3)n2)c1 [GSK1379878] 0

Subsequent entry: O=c1cc(N2CCOCC2)nc2n(Cc3cccc(Cl)c3)ccn12 [GSK2296823] 21

* * *

# Test system: YANK3
# Construct: gene STK32C
# settings: concentration: 1 μM, replicates: in singlicate; n = 1
property: %Inh
Enter the number, and then the unit.

* Fc1cccc(COc2ccc(Nc3ncnc4sc(-c5ccc[nH]5)cc34)cc2Cl)c1 | 0%

Name the recorded %Inh for Oc1ccc2ncnc(Nc3ccc(OCc4ccccc4)cc3)c2c1 . 15%

* * *

Quick reference: %Inh of the listed items.
# Tested on: STK36
# settings: concentration: 1 μM, replicates: in singlicate; n = 1
Only the number, expressed in %, is required.

Tell me reported %Inh for COC(=O)c1c(-c2ccccc2)c2cc(Cl)ccc2c(=O)n1Cc1ccc(S(C)(=O)=O)cc1 , tested with STK36. 15

Subsequent entry: Nc1nc(-c2ccc3c(N)n[nH]c3c2)cc(N2CCCCC2)n1 0

Subsequent entry: COc1cc2ncnc(Nc3ccc(OCc4ccccc4Br)c(Cl)c3)c2cc1OC.Cl 0

Subsequent entry: Cn1cc(-c2ccc3c(c2)CCN3C(=O)Cc2cccc(C(F)(F)F)c2)c2c(N)ncnc21 0

* * *

Quick reference: %Inh of the listed items.
# Tested on: JNK2
# Construct: gene MAPK9
# settings: concentration: 1 μM, replicates: in singlicate; n = 1
Only the number, expressed in %, is required.

Name the recorded %Inh for O=C(Nc1n[nH]c2nc(-c3ccco3)c(Br)cc12)c1ccc(CN2CCCC2)cc1.O=C(O)[C@H](O)[C@@H](O)C(=O)O [SB-742352] . 0

* * *

# System: EPHA5
# settings: concentration: 1 μM, replicates: in singlicate; n = 1
property: %Inh (%)
Only the number, expressed in %, is required.

Answered cases to consult:
* Cn1ccc2ncnc(Nc3ccc(Oc4cccc(Cl)c4)c(Cl)c3)c21 | 21
* FC(F)(F)c1cc(Nc2nccc(-c3c(-c4ccc(Cl)cc4)nn4ncccc34)n2)ccc1Cl [GW829351] | 0
* COc1cc2ncnc(Nc3ccc(OCc4ccccc4Br)c(Cl)c3)c2cc1OC.Cl [GI261590] | 15

Now turn to the next compound.
Name the recorded %Inh for CCC(CC)(CC)n1cnc2c(N)ncnc21 [SKF-97620] . 0

* * *

# Test system: NEK9
# settings: concentration: 1 μM, replicates: in singlicate; n = 1
# if value of %Inh reaches 7%, tag True; if it stays below, tag False

# count of solved cases: 3
* Clc1ccc(-c2cc(-c3c[nH]nc3-c3ccccn3)ccn2)cc1 [GW681251] | False
* COc1ccc(Nc2nccc(N3CCC(NC(=O)c4cccc(NC(C)=O)c4)C3)n2)cc1 (stereo not shown) [GSK1379732] | True
* COc1cc2ncnc(Nc3ccc(OCc4ccccc4Br)c(Cl)c3)c2cc1OC.Cl [GI261590] | False

For the next question, use this compound.
State whether the measured %Inh reaches 7%, counting equality as reaching it, for CSc1ccc(NC2=C(c3ccccc3Cl)C(=O)NC2=O)cc1 [SB-342411] True

* * *

Quick reference: %Inh of the listed items.
# System: HIPK2
# settings: concentration: 1 μM, replicates: in singlicate; n = 1
Only the number, expressed in %, is required.

Answered cases to consult:
* COc1cc2ncnc(Nc3ccc(OCc4ccccc4Br)c(Cl)c3)c2cc1OC.Cl | 0
* CNc1nccc(-c2c(-c3ccc(F)cc3)ncn2CCCN2CCOCC2)n1 | 0

Now turn to the next compound.
Name the recorded %Inh for CSc1ccc(NC2=C(c3ccccc3Cl)C(=O)NC2=O)cc1 . 0

* * *

# Tested on: CAMK2D
# settings: concentration: 1 μM, replicates: in singlicate; n = 1
property: %Inh (%)
Only the number, expressed in %, is required.

Answered cases to consult:
- CCCc1ccc(S(=O)(=O)NC2CCN(c3ccnc(Nc4ccc(OC)cc4)n3)C2)cc1 (centres unmarked) [GSK1379737]: 4
- Fc1cccc(COc2ccc(Nc3ncnc4sc(-c5ccc[nH]5)cc34)cc2Cl)c1 [GW707818]: 7
- OCCOCCn1ccc2ncnc(Nc3ccc(Oc4cccc(Cl)c4)c(Cl)c3)c21: 0
- CS(=O)(=O)CCNCc1ccc(-c2ccc3ncnc(Nc4ccc(OCc5ccccc5)c(Cl)c4)c3c2)o1.Cl [GW574783]: 4

Now turn to the next compound.
Tell me reported %Inh for Nc1nc(-c2cccnc2)c(-c2ccnc3ccccc23)s1 [GW684083] , tested with CAMK2D. 2

* * *

# System: PAK2
pKd: −log10 of the molar value.
property: pKd

Tell me reported pKd for CNc1nccc(-c2c(-c3ccc(F)cc3)ncn2CCCN2CCOCC2)n1 , tested with PAK2. < 5.00

* * *

# Test system: PIP5K1C
# settings: concentration: 1 μM, replicates: in singlicate; n = 1
property: %Inh (%)
Only the number, expressed in %, is required.

Answered cases to consult:
• COc1cc2c(Nc3cccc(NC(=O)c4ccccc4)c3)ncnc2cc1OCCCN1CCOCC1 = 26
• COc1ccc(-c2oc3ncnc(N)c3c2-c2ccc(OC)cc2)cc1 = 54

Tell me reported %Inh for Nc1nc(-c2ccc3c(N)n[nH]c3c2)cc(N2CCC[C@@H](C(=O)Nc3ccccc3)C2)n1.O=C(O)C(F)(F)F.O=C(O)C(F)(F)F , tested with PIP5K1C. 30

Subsequent entry: OCCOCCn1ccc2ncnc(Nc3ccc(Oc4cccc(Cl)c4)c(Cl)c3)c21 34

* * *

This document collects Kd values reported for MYLK.
Only the number, expressed in nM, is required.

- O=C(Nc1n[nH]c2nc(-c3ccco3)c(Br)cc12)c1ccc(CN2CCCC2)cc1.O=C(O)[C@H](O)[C@@H](O)C(=O)O [SB-742352]: 1300

Name the recorded Kd for CN1c2ccc(-c3ccc(C(=O)NCCO)cc3)cc2-c2[nH]ncc2S1(=O)=O . 480

* * *

# Tested on: NEK6
# settings: concentration: 1 μM, replicates: in singlicate; n = 1
Quick reference: %Inh of the listed items.
Only the number, expressed in %, is required.

* NC(=O)c1sc(-n2cnc3ccccc32)cc1OCc1ccccc1F [GSK1024306] | 0
* COC(=O)c1c(-c2ccccc2)c2cc(Cl)ccc2c(=O)n1Cc1ccc(S(C)(=O)=O)cc1 | 2
* Fc1cccc(COc2ccc(Nc3ncnc4nn5ccccc5c34)cc2Cl)c1 [GW689066] | 0

Now turn to the next molecule.
Name the recorded %Inh for CCc1nc(-c2cccc(N(C)S(=O)(=O)c3ccccc3)c2)c(-c2ccnc(Nc3ccc(N4CCN(C(C)=O)CC4)nc3)n2)s1 [GSK1645895] . 0

* * *

# Test system: MST1R
# settings: concentration: 1 μM, replicates: in singlicate; n = 1
Quick reference: %Inh of the listed items.
Enter the number, and then the unit.

Answered cases to consult:
* Cl.c1ccc(Cn2ccc3cc(Nc4ncnc5ccccc45)ccc32)cc1 | 43%
* Cc1ccc(C)c(NC(=O)NCCNc2ccnc(Nc3ccc(F)cc3)n2)c1 | 7%
* O=C(Nc1n[nH]c2nc(-c3ccco3)c(Br)cc12)c1ccc(CN2CCCC2)cc1.O=C(O)[C@H](O)[C@@H](O)C(=O)O | 0%
* CS(=O)(=O)CCNCc1nc(-c2ccc3ncnc(Nc4ccc(OCc5cccc(F)c5)c(Cl)c4)c3c2)cs1.Cl | 38%
* CC(C)(C)OC(=O)NC1CCCN(c2cc(-c3ccc4c(N)n[nH]c4c3)nc(N)n2)C1 (stereo not drawn) | 31%

Tell me reported %Inh for CS(=O)(=O)CCNCc1ccc(-c2ccc3ncnc(Nc4ccc(OCc5ccccc5)c(Cl)c4)c3c2)o1.Cl , tested with MST1R. 17%

Subsequent entry: Oc1ccc2ncnc(Nc3ccc(OCc4ccccc4)cc3)c2c1 13%

Subsequent entry: Cn1ccc2ncnc(Oc3ccc(NC(=O)Nc4cccnc4)c(Cl)c3)c21 15%
